Test: qHTS of pediatric cancer cell lines to identify multiple opportunities for drug repurposing: Confirmatory screen for SK-N-MC cells (AID 1347111);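 note: cells exposed to compound for 48 h before the readout; nearly all actives have a fitted effect of over 70% in size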
Details: SK-N-MC cell viability; series mostly up to 45.9 µM
Protocol: Drug repurposing or repositioning has been offered as a strategy for drug development in oncology programs. […] [1] Shen, M et al. Quantitative high-throughput phenotypic screening of pediatric cancer cell lines identifies multiple opportunities for drug repurposing. […] Cells were assayed in growth media at a density of 500-1,000 cells/well. […] After a 15 min incubation at room temperature, samples were analyzed for luminescence intensity using a ViewLux High-throughput CCD imager equipped with clear filters.
Results filed as inconclusive are left out. Calls of active or inactive are those of the source. Calls come from the whole dose curve; as a rule, active = well fitted cell-killing curve with a large enough effect; inconclusive = small, poorly fitted or top-dose-only effect; inactive = no such curve, though single readings can be large or run the other way.
Use one of these outcomes when replying: active, inactive

// return assay outcome for CCCCC(=O)OCC(=O)[C@H]1[C@H](C)C[C@H]2[C@@H]3C[C@H](F)C4=CC(=O)C=C[C@]4(C)[C@@]3(F)[C@@H](O)C[C@@]21C
active

// return assay outcome for Cc1nc(N)nc(N)c1-c1ccc(Cl)c(Cl)c1
active

// return assay outcome for CCc1cc2cc(OC)c(OC)cc2c(Cc2ccccc2)n1
inactive

// return assay outcome for Cc1ccc(C(=O)Oc2ccc(C(O)CNC(C)(C)C)cc2OC(=O)c2ccc(C)cc2)cc1 (stereo not drawn)
active

// return assay outcome for CC(C)=CCC/C(C)=C/CC/C(C)=C/C(=O)OCC(=O)[C@@]1(O)CC[C@H]2[C@@H]3CCC4=CC(=O)C=C[C@]4(C)[C@H]3[C@@H](O)C[C@@]21C
active

// return assay outcome for O=c1[nH]sc2cc(Cl)ccc12
active

// return assay outcome for CCCC(=O)O[C@]1(C(=O)CCl)[C@@H](C)C[C@H]2[C@@H]3CCC4=CC(=O)C=C[C@]4(C)[C@@]3(F)C(=O)C[C@@]21C
active

// return assay outcome for Cc1cc(OCCOCC[N+](C)(C)Cc2ccccc2)ccc1C(C)(C)CC(C)(C)C
active

====

Biological target: Phospholipid hydroperoxide glutathione peroxidase GPX4 (Homo sapiens) (UniProt P36969)
Sequence (P36969 whole entry, looked up): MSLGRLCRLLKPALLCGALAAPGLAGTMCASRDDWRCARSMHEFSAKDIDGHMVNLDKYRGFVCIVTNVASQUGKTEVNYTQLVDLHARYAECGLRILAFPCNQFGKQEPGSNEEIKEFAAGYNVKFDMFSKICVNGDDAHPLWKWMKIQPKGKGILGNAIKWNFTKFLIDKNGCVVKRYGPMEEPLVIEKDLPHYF
Test: Primary qHTS Assay for Inhibitors of Recombinant Selenoprotein Glutathione Peroxidase 4 (GPX4) (AID 1845192); note: nearly all actives have a fitted effect of over 65% in size
Details: recombinant GPX4, GR-coupled NADPH fluorescence, 15 min; series mostly up to 50 µM
Records with an inconclusive call do not appear. Active and inactive are the calls of the source. Calls follow the shape of the dose curve; as a rule, active = well fitted inhibition curve with a large enough effect; inconclusive = small, poorly fitted or top-dose-only effect; inactive = flat fitted curve, though single readings scatter.
recorded endpoint: outcome

Some solved cases for reference:
[[record]]
compound = "CCN(CC)CC(=O)Nc1c(C)cccc1C(=O)OC"
measurement_target = "Phospholipid hydroperoxide glutathione peroxidase GPX4 (Homo sapiens) (UniProt P36969)"
test_value = "inactive"

[[record]]
compound = "COc1cc(C(=O)OC(COCCC(C)C)CN2CCOCC2)cc(OC)c1OC (centres undefined)"
measurement_target = "Phospholipid hydroperoxide glutathione peroxidase GPX4 (Homo sapiens) (UniProt P36969)"
test_value = "inactive"

[[record]]
compound = "Nc1c(I)cc(I)c(C(=O)N(CCC(=O)O)c2ccccc2)c1I"
measurement_target = "Phospholipid hydroperoxide glutathione peroxidase GPX4 (Homo sapiens) (UniProt P36969)"
test_value = "inactive"

[[record]]
compound = "C#CC(C)(CC)OC(=O)c1ccccc1C(=O)O (centres undefined)"
measurement_target = "Phospholipid hydroperoxide glutathione peroxidase GPX4 (Homo sapiens) (UniProt P36969)"
test_value = "inactive"

[[record]]
compound = "CCN(CC)CCNC(=O)c1ccc(NS(C)(=O)=O)cc1"
measurement_target = "Phospholipid hydroperoxide glutathione peroxidase GPX4 (Homo sapiens) (UniProt P36969)"
test_value = "inactive"


Value wanted: outcome (Phospholipid hydroperoxide glutathione peroxidase GPX4 (Homo sapiens) (UniProt P36969)) of entry CCC1=C[C@@H]2CN(C1)Cc1c([nH]c3ccccc13)[C@@](C(=O)OC)(c1cc3c(cc1OC)N(C)[C@H]1[C@@](O)(C(=O)OC)[C@H](OC(C)=O)[C@]4(CC)C=CCN5CC[C@]31[C@@H]54)C2
inactive

Value wanted: outcome (Phospholipid hydroperoxide glutathione peroxidase GPX4 (Homo sapiens) (UniProt P36969)) of entry CC(C)(C)CC(=O)OCC(=O)[C@@]1(O)CC[C@H]2[C@@H]3CCC4=CC(=O)C=C[C@]4(C)[C@H]3[C@@H](O)C[C@@]21C
inactive

Value wanted: outcome (Phospholipid hydroperoxide glutathione peroxidase GPX4 (Homo sapiens) (UniProt P36969)) of entry CN1CCCN(C(c2ccccc2)c2ccc(Cl)cc2)CC1 (centres undefined)
inactive

Value wanted: outcome (Phospholipid hydroperoxide glutathione peroxidase GPX4 (Homo sapiens) (UniProt P36969)) of entry CCO[C@H](Cc1ccc(OCCc2ccc(OS(C)(=O)=O)cc2)cc1)C(=O)O
inactive

Value wanted: outcome (Phospholipid hydroperoxide glutathione peroxidase GPX4 (Homo sapiens) (UniProt P36969)) of entry Brc1ccc([C@H]2CN3CCSC3=N2)cc1
inactive

Value wanted: outcome (Phospholipid hydroperoxide glutathione peroxidase GPX4 (Homo sapiens) (UniProt P36969)) of entry O=[N+]([O-])c1ccc(-c2nc(-c3ccc(F)cc3)c(-c3ccncc3)[nH]2)cc1
inactive

Value wanted: outcome (Phospholipid hydroperoxide glutathione peroxidase GPX4 (Homo sapiens) (UniProt P36969)) of entry CN(C)C(=O)CNC(=O)Cc1ccccc1
inactive

Value wanted: outcome (Phospholipid hydroperoxide glutathione peroxidase GPX4 (Homo sapiens) (UniProt P36969)) of entry CN1C(CSCC(F)(F)F)Nc2cc(Cl)c(S(N)(=O)=O)cc2S1(=O)=O (centres undefined)
inactive

Value wanted: outcome (Phospholipid hydroperoxide glutathione peroxidase GPX4 (Homo sapiens) (UniProt P36969)) of entry CN1CCCN=C1/C=C/c1cccs1
inactive

Value wanted: outcome (Phospholipid hydroperoxide glutathione peroxidase GPX4 (Homo sapiens) (UniProt P36969)) of entry CC(C)=CCC/C(C)=C/CC/C(C)=C/CCC(=O)OC/C=C(\C)CCC=C(C)C
inactive

Value wanted: outcome (Phospholipid hydroperoxide glutathione peroxidase GPX4 (Homo sapiens) (UniProt P36969)) of entry Cc1ccc(C(=O)C(=O)O)cc1C
inactive

Value wanted: outcome (Phospholipid hydroperoxide glutathione peroxidase GPX4 (Homo sapiens) (UniProt P36969)) of entry C[C@H]1NCc2cc(-c3ccc4c(=O)c(C(=O)O)cn(C5CC5)c4c3OC(F)F)ccc21
inactive

Value wanted: outcome (Phospholipid hydroperoxide glutathione peroxidase GPX4 (Homo sapiens) (UniProt P36969)) of entry Cn1cc(S(C)=O)c(=O)c2ccc(F)cc21 (centres undefined)
inactive

Value wanted: outcome (Phospholipid hydroperoxide glutathione peroxidase GPX4 (Homo sapiens) (UniProt P36969)) of entry O=C(C1CCCCC1)N1CC(=O)N2CCCc3ccccc3C2C1 (centres undefined)
inactive

Value wanted: outcome (Phospholipid hydroperoxide glutathione peroxidase GPX4 (Homo sapiens) (UniProt P36969)) of entry CCC(=O)O[C@]1(C(=O)COC)[C@@H](C)C[C@H]2[C@@H]3CCC4=CC(=O)C=C[C@]4(C)C3(F)[C@@H](O)C[C@@]21C (some centres undefined)
inactive

Value wanted: outcome (Phospholipid hydroperoxide glutathione peroxidase GPX4 (Homo sapiens) (UniProt P36969)) of entry C1N2CN3CN1CN(C2)C3
inactive

Value wanted: outcome (Phospholipid hydroperoxide glutathione peroxidase GPX4 (Homo sapiens) (UniProt P36969)) of entry CCCCCC[C@@H](CCC)C(=O)O
inactive

Value wanted: outcome (Phospholipid hydroperoxide glutathione peroxidase GPX4 (Homo sapiens) (UniProt P36969)) of entry CC(=O)/C=C/C=C1/C2CCC(C2)C1(C)C (centres undefined)
inactive

Value wanted: outcome (Phospholipid hydroperoxide glutathione peroxidase GPX4 (Homo sapiens) (UniProt P36969)) of entry CCOc1c(N2CCOCC2)cnn(C)c1=O
inactive

Value wanted: outcome (Phospholipid hydroperoxide glutathione peroxidase GPX4 (Homo sapiens) (UniProt P36969)) of entry CCCCCC1Nc2cc(C(F)(F)F)c(S(N)(=O)=O)cc2S(=O)(=O)N1 (centres undefined)
inactive

Value wanted: outcome (Phospholipid hydroperoxide glutathione peroxidase GPX4 (Homo sapiens) (UniProt P36969)) of entry NS(=O)(=O)c1ccc(N2CCCCS2(=O)=O)cc1
inactive

Value wanted: outcome (Phospholipid hydroperoxide glutathione peroxidase GPX4 (Homo sapiens) (UniProt P36969)) of entry CC(C)Cc1ccc(C(C)C(=O)OCc2ccccn2)cc1 (centres undefined)
inactive

Value wanted: outcome (Phospholipid hydroperoxide glutathione peroxidase GPX4 (Homo sapiens) (UniProt P36969)) of entry N[C@@H](Cn1ccc(=O)c(O)c1)C(=O)O
inactive

Value wanted: outcome (Phospholipid hydroperoxide glutathione peroxidase GPX4 (Homo sapiens) (UniProt P36969)) of entry O=C1CC[C@H](C(=O)N2CCCCC2)N1
inactive

Value wanted: outcome (Phospholipid hydroperoxide glutathione peroxidase GPX4 (Homo sapiens) (UniProt P36969)) of entry CN1CC(=O)N2[C@H](c3ccc4c(c3)OCO4)c3[nH]c4ccccc4c3C[C@@H]2C1=O
inactive

Value wanted: outcome (Phospholipid hydroperoxide glutathione peroxidase GPX4 (Homo sapiens) (UniProt P36969)) of entry Nc1ncnc2nc[nH]c12
inactive

Value wanted: outcome (Phospholipid hydroperoxide glutathione peroxidase GPX4 (Homo sapiens) (UniProt P36969)) of entry O=C(CCCCC(=O)Nc1c(I)cc(I)c(C(=O)O)c1I)Nc1c(I)cc(I)c(C(=O)O)c1I
inactive

Value wanted: outcome (Phospholipid hydroperoxide glutathione peroxidase GPX4 (Homo sapiens) (UniProt P36969)) of entry CC(C)N(CCC(=O)c1ccc2ccccc2c1)Cc1ccccc1
inactive
